FYI, the data here is from ChEMBL document CHEMBL4257546.

- target-system: Bile acid receptor (Homo sapiens, UniProt Q96RI1)
- Sequence (Q96RI1 whole entry): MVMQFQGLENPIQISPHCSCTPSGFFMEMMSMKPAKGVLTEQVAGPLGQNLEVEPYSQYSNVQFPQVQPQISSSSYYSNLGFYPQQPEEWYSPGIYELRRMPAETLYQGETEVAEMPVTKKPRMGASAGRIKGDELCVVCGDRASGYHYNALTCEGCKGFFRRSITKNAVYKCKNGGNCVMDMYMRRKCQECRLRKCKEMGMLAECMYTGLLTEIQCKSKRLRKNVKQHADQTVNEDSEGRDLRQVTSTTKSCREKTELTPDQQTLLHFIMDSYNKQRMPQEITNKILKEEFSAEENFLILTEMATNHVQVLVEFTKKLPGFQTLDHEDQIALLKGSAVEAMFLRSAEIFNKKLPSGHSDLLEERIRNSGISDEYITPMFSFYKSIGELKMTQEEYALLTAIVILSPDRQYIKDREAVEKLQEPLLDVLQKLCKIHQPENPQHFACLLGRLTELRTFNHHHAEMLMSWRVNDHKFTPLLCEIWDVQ
- assay-info: Transactivation of full-length FXR (unknown origin) expressed in HEK293 cells after 18 hrs by dual-glo luciferase reporter gene assay
Record form. Attribute: EC50. Fill in for each entry.
Put your answer as a value accompanied by its unit after it.

line-notation | target-system | measurement
O=C(O)c1ccccc1-c1ccccc1C(=O)N1CCN(Cc2ccc3c(c2)OCO3)CC1 | Bile acid receptor (Homo sapiens, UniProt Q96RI1) | 5.99 µM
COc1cc([N+](=O)[O-])ccc1NC(=O)CNc1ccccc1N1CCCC1=O | Bile acid receptor (Homo sapiens, UniProt Q96RI1) | 4.33 µM

Next up:
input: EC50 for `CN(Cc1ccc(N2CCCCC2)cc1)C(=O)c1n[nH]c(=O)c2ccccc12` ?
output: 14.4 µM
